procedure summary: Acute intervention: nutrikinetics of plasma metabolites after ingestion of O. europaea extract (untargeted HPLC-ESI-QTOF-MS)
experimental conditions: 6 h after O. europaea extract
Counter-ions that a name gives are not always drawn.
readout name: mean chromatographic area in plasma, T6
// keep it numeric: no unit symbol after the value

O=C(O)CCCCCCCCC(=O)O [decanedioic acid isomer 1, decanedioic acid] : 68

Returns the measured mean chromatographic area in plasma, T6 for the input molecule. Input: COc1cc(C)cc(OC)c1OC [1,2,3-trimethoxy-5-methyl benzene]
0

Which measured mean chromatographic area in plasma, T6 value corresponds to COc1cc(C(=O)O)ccc1OS(=O)(=O)O [vanillic acid 4-O-sulfate isomer 1, vanillic acid 4-O-sulfate] ?
216

Param item = COc1cc(C(=O)O)ccc1OC1OC(C(=O)O)C(O)C(O)C1O (centres unmarked) [vanillic acid glucuronide] ; retrieve measured mean chromatographic area in plasma, T6.
44

Quick check: mean chromatographic area in plasma, T6 of COc1cc(CCO)ccc1OS(=O)(=O)O [homovanillyl alcohol sulfate] ?
0

# lookup: mean chromatographic area in plasma, T6 of COc1cc(C=CC(=O)O)ccc1OS(=O)(=O)O [ferulic acid 4-sulfate]
18

Returns the measured mean chromatographic area in plasma, T6 for the input molecule. Input: OC[C@H]1O[C@@H](OCc2ccoc2)[C@H](O)[C@@H](O)[C@@H]1O (single isomer, unassigned; isomer 2) [3-furanmethanol glucoside isomer 2, 3-furanmethanol glucoside]
250

Which mean chromatographic area in plasma, T6 reading was recorded for the molecule O=C(Oc1cc(O)c2c(c1)O[C@H](c1cc(O)c(O)c(O)c1)[C@H](O)C2)c1cc(O)c(O)c(O)c1 [epigallocatechin 7-O-gallate] ?
0

Can you share its mean chromatographic area in plasma, T6? I mean this molecule: COC(=O)C1=CO[C@H](O)/C(=C/CO)[C@@H]1CC(=O)OCCc1ccc(O)c(O)c1 [10-hydroxyoleuropein aglycone]
0

Fill in: mean chromatographic area in plasma, T6 of OC[C@H]1O[C@@H](OCc2ccoc2)[C@H](O)[C@@H](O)[C@@H]1O (single isomer, unassigned; isomer 1) [3-furanmethanol glucoside isomer 1, 3-furanmethanol glucoside] is ___
17

I would be grateful if you could share the reported mean chromatographic area in plasma, T6 for COc1cc(C(=O)O)cc(OC)c1OC [eudesmic acid] .
0

----------
# mean chromatographic area in plasma, T10 per entry
procedure summary: Acute intervention: nutrikinetics of plasma metabolites after ingestion of L. citriodora extract (untargeted HPLC-ESI-QTOF-MS)
experimental conditions: in vivo
Structures can show the parent of a compound that is named as a salt.
Answer as a number with no unit attached.

Known results for compounds:
O=C(O)C=Cc1ccc(OS(=O)(=O)O)c(O)c1 (single isomer, unassigned; isomer 1) [caffeic acid 4-sulfate isomer 1, caffeic acid 4-sulfate] : 0
COc1cc(CC(=O)O)ccc1OS(=O)(=O)O [homovanillic acid sulfate isomer 1, homovanillic acid sulfate] : 207
O=C(O)C=Cc1ccc(OS(=O)(=O)O)c(O)c1 (single isomer, unassigned; isomer 2) [caffeic acid 4-sulfate isomer 2, caffeic acid 4-sulfate] : 22

Turning now to a further record.
Which measured mean chromatographic area in plasma, T10 value corresponds to O=C(O)CCCCCCCCC(=O)O [sebacic acid isomer, sebacic acid] ?
0

----------
procedure summary: Acute intervention: nutrikinetics of plasma metabolites after ingestion of L. citriodora extract (untargeted HPLC-ESI-QTOF-MS)
experimental conditions: human plasma, 500 mg capsule of L. citriodora (LC) extract, oral, mean ± SD
readout name: Cmax: relative maximum plasma level

Use these answered entries as a reference point.
CC(O)/C=C\C/C=C\C/C=C\CCCCCCCC(=O)O (centres unmarked) [17-hydroxylinolenic acid] : 335 ± 306 relative chromatographic area
COc1cc(CCCO)ccc1OC1OC(CO)C(O)C(O)C1O (single isomer, unassigned; isomer 2) [dihydroconiferin isomer 2, dihydroconiferin] : 136 ± 28 relative chromatographic area
CC1=CC(=O)CC(C)(C)C1(O)/C=C/C(C)=C/COC1OC(CO)C(O)C(O)C1O (single isomer, unassigned; isomer 1) [abscisic alcohol 11-glucoside isomer 1, abscisic alcohol 11-glucoside] : 202 ± 82 relative chromatographic area
COc1cc(C(=O)O)ccc1OS(=O)(=O)O [vanillic acid 4-O-sulfate isomer 1, vanillic acid 4-O-sulfate] : 874 ± 644 relative chromatographic area

Okay, next one:
For the compound shown here, CC1=CC(=O)CC(C)(C)C1(O)/C=C/C(C)=C/COC1OC(CO)C(O)C(O)C1O (single isomer, unassigned; isomer 2) [abscisic alcohol 11-glucoside isomer 2, abscisic alcohol 11-glucoside] , give the reported Cmax: relative maximum plasma level.
562 ± 251 relative chromatographic area

----------
procedure summary: Acute intervention: nutrikinetics of plasma metabolites after ingestion of L. citriodora extract (untargeted HPLC-ESI-QTOF-MS)
experimental conditions: human, in vivo, po, 500 mg
Where a name gives a salt, the structure may show the parent alone.
readout name: Cmax: relative maximum plasma level

COc1cc(CC(=O)O)ccc1OS(=O)(=O)O [homovanillic acid sulfate isomer 1, homovanillic acid sulfate] : 341 ± 164 relative chromatographic area
O=C(O)C=Cc1ccc(OS(=O)(=O)O)c(O)c1 (single isomer, unassigned; isomer 1) [caffeic acid 4-sulfate isomer 1, caffeic acid 4-sulfate] : 325 ± 147 relative chromatographic area
O=C(O)CCCCCCCCC(=O)O [sebacic acid isomer, sebacic acid] : 119 ± 27 relative chromatographic area

So what's the measured Cmax: relative maximum plasma level for this one? O=C(O)C=Cc1ccc(OS(=O)(=O)O)c(O)c1 (single isomer, unassigned; isomer 2) [caffeic acid 4-sulfate isomer 2, caffeic acid 4-sulfate]
357 ± 268 relative chromatographic area

----------
procedure summary: Acute intervention: nutrikinetics of plasma metabolites after ingestion of L. citriodora extract (untargeted HPLC-ESI-QTOF-MS)
experimental conditions: in vivo
Where a name gives a salt, the structure may show the parent alone.
Listing of recorded mean chromatographic area in plasma, T6 by entry.
Output spec: single numeric token, no unit.

Field: example entries. Status: answers known.
O=C(O)C=Cc1ccc(OS(=O)(=O)O)c(O)c1 (single isomer, unassigned; isomer 1) [caffeic acid 4-sulfate isomer 1, caffeic acid 4-sulfate] : 86
COc1cc(CC(=O)O)ccc1OS(=O)(=O)O [homovanillic acid sulfate isomer 1, homovanillic acid sulfate] : 209

So what's the measured mean chromatographic area in plasma, T6 for this one? O=C(O)C=Cc1ccc(OS(=O)(=O)O)c(O)c1 (single isomer, unassigned; isomer 2) [caffeic acid 4-sulfate isomer 2, caffeic acid 4-sulfate]
189

# input compound: O=C(O)CCCCCCCCC(=O)O [sebacic acid isomer, sebacic acid] ; wanted: its mean chromatographic area in plasma, T6
0

----------
procedure summary: Acute intervention: nutrikinetics of plasma metabolites after ingestion of O. europaea extract (untargeted HPLC-ESI-QTOF-MS)
experimental conditions: 4 h after O. europaea extract
Procedure: A total of 25 healthy individuals participated, with an average age of 27 ± 9 years and a mean body mass index (BMI) of 23 ± 3 kg/m^2. […] Metabolite nutrikinetics were studied using PKSolver, an add-in program for pharmacokinetic data analysis in Microsoft Excel. The time to reach the maximum concentration (observed Tmax) was calculated for each significant metabolite. As an untargeted metabolomic approach was used to detect the circulating metabolites, these were not quantified. […]
readout name: mean chromatographic area in plasma, T4
No unit in the answer, only the number.

// worked examples, mean chromatographic area in plasma, T4 included
O=C(O)CCCCCCCCC(=O)O [decanedioic acid isomer 2, decanedioic acid] : 47
CC(=O)Oc1cc2c(c(C)c1OC(C)=O)CC=C1[C@@]2(C)CC[C@@]2(C)C3C[C@](C)(C(=O)O)CC[C@]3(C)CC[C@]12C (stereo partly drawn) [dihydrocelastryl diacetate] : 163
COC(=O)C1=CO[C@H](O)/C(=C/CO)[C@@H]1CC(=O)OCCc1ccc(O)c(O)c1 [10-hydroxyoleuropein aglycone] : 0
OC[C@H]1O[C@@H](OCc2ccoc2)[C@H](O)[C@@H](O)[C@@H]1O (single isomer, unassigned; isomer 2) [3-furanmethanol glucoside isomer 2, 3-furanmethanol glucoside] : 483

Which value of mean chromatographic area in plasma, T4 has been reported for COc1cc(C(=O)O)cc(OC)c1OC in the records?
0

Looking for the measured mean chromatographic area in plasma, T4 of O=C(Oc1cc(O)c2c(c1)O[C@H](c1cc(O)c(O)c(O)c1)[C@H](O)C2)c1cc(O)c(O)c(O)c1 [epigallocatechin 7-O-gallate] , can you help?
0

----------
procedure summary: Acute intervention: nutrikinetics of plasma metabolites after ingestion of L. citriodora extract (untargeted HPLC-ESI-QTOF-MS)
experimental conditions: 8 h after L. citriodora extract
Counter-ions that a name gives are not always drawn.
Quick reference: mean chromatographic area in plasma, T8 of the listed items.
# output: bare number, no unit

In the examples that follow, each entry is paired with its recorded mean chromatographic area in plasma, T8.
Cc1cccc(O)c1O : 76
CC1=CC(=O)CC(C)(C)C1(O)/C=C/C(C)=C/COC1OC(CO)C(O)C(O)C1O (single isomer, unassigned; isomer 2) [abscisic alcohol 11-glucoside isomer 2, abscisic alcohol 11-glucoside] : 0

Form field: reported mean chromatographic area in plasma, T8 of CC(O)/C=C\C/C=C\C/C=C\CCCCCCCC(=O)O (stereo not drawn) [17-hydroxylinolenic acid]
12

Which mean chromatographic area in plasma, T8 value belongs to CC1=CC(=O)CC(C)(C)C1(O)/C=C/C(C)=C/COC1OC(CO)C(O)C(O)C1O (single isomer, unassigned; isomer 3) [abscisic alcohol 11-glucoside isomer 3, abscisic alcohol 11-glucoside] ?
0

Item under review: COc1cc(C=CC(=O)O)ccc1OS(=O)(=O)O [ferulic acid 4-sulfate] . Reported mean chromatographic area in plasma, T8?
152

GET /values?readout=mean chromatographic area in plasma, T8&item= COc1cc(CCO)ccc1OS(=O)(=O)O [homovanillyl alcohol sulfate]
76

Reported mean chromatographic area in plasma, T8, molecule COc1cc(C(=O)O)ccc1OS(=O)(=O)O [vanillic acid 4-O-sulfate isomer 2, vanillic acid 4-O-sulfate] : ____
0

Which mean chromatographic area in plasma, T8 is listed for CC(C)=C1CC2(C)C(=CC1=O)CCC(OC1OC(CO)C(O)C(O)C1O)C2C (stereo not drawn) [isopetasoside] ?
0

Query (molecule): COc1cc(/C=C/C(=O)O)ccc1O[C@@H]1O[C@H](C(=O)O)[C@@H](O)[C@H](O)[C@H]1O [ferulic acid 4-O-glucuronide] ; field requested: mean chromatographic area in plasma, T8
177
